Target: antigen RBD-FC protein (SARS-CoV-2 RBD protein) (SARS-CoV-2, UniProt P0DTC2 319-541)
Assay: thin film interference (Gator), RBD-Fc captured on anti-human Fc probe, nano antibody in solution
pKd: −log10 of the molar value.

BINDER	pKd
NBS1-3 (VHH, also called nano antibody NBS1-3) VHH: QVQLVESGGGLVQPGASLRLSCAASGRTFSSTGMGWFRQAPGKEREFVAAISGDGDTTYYADSVKGRFTISRDNAKNTVYLQMNSLKPWDTAVYYCASTRFTWGLYSDFVNSYEYDAWGQGTPVTVSS	10.52
NBS1-57 (VHH, also called nano antibody NBS1-57) VHH: QVQLVESGGGLVQPGASLRLFCVASGRTFSSTGMGWFRQAPGKEREFVAAISGPGDTTYYVDSVKGRFTISRDNAKNTVYLQMNSLKPEDTAVYYCASAGFTWGLYSDFVNSYEYNYWGQGTPVTVSS	8.89
NBS1-2 (VHH, also called XBS1-2; nano antibody NBS1-2) VHH: QVQLVESGGGLVQAGDSLRLACAATGRTLSNYIMGWFRQAPGKEPLFVAAISRSGVITKYADSVEGRFTISRDNAKNTAYLQMTSLEPEDTAVYYCAASSSKYMATREYDYWGQGTQVTVSS	5.85
NBS1-10 (VHH, also called nano antibody NBS1-10) VHH: QVQLVESGGGLVQPGGSLRLSCAASGRTFSSTGMGWFRQGPGKEREFVAAISGDGDTTYYADSVKGRFTISRDNAKNTVYLQMNSLKPEDTAVYYCASARFTWGLYSDFVNSYEYDAWGQGTPVTVSS	8.88

Data provenance is patent US12398199.
